system: human PBMCs; test: Human PBMC cytokine response assay (IFN-γ and IFN-α in cell-free medium by ELISA), with or without cPLGA; assay type: cell-based; details: Table 25; donor 28251
For each of the substances below, state its IFN-g.
State just the number; it will be interpreted in pg/mL.

## Task Consider the substance 5′-AGATGAT-3′ [Compound P-4, reference compound] and give its recorded IFN-g.
## Result 1

## Task Using the record for 5′-TCGTCG-3′-HEG-5′-ACGTTCG-3′-HEG-5′-AGATGAT-3′ [Compound C-10] , state its measured IFN-g.
## Result 163

## Task Complete the entry with IFN-g for 5′-TCGAGAT-3′-HEG-5′-TCGAGAT-3′-HEG-5′-TCGAGAT-3′ [Compound C-45]
## Result 26

## Task In one line, give reported IFN-g of the entry 5′-TCGTCG-3′ [Compound P-2, reference compound] .
## Result 25

## Task Recall and state the measured IFN-g for 5′-TCGTCGA-3′-HEG-5′-TCGTCGA-3′-HEG-5′-TCGTCGA-3′ [Compound C-21] .
## Result 51

## Task Given (5′-TCGTCGA-3′-HEG)2-glycerol-HEG-5′-TCGTCGA-3′ [Compound C-94] , respond with its IFN-g.
## Result 60

## Task In one line, give reported IFN-g of the entry 5′-TCGACGT-3′ [Compound P-14, reference compound] .
## Result 34

## Task Answer with the recorded IFN-g of 5′-TCGTCGA-3′ [Compound P-1, reference compound] only.
## Result 21

## Task State its IFN-g: 5′-ACGTTCG-3′ [Compound P-3, reference compound]
## Result 21
